measurement_type: melting point

{"columns": ["compound", "measurement_type", "reported_value"],
 "data": [
  ["CC(=O)c1nn(-c2c(Cl)cc(C(F)(F)F)cc2Cl)c(N)c1S(C)(=O)=O", "melting point", "77 to 79 °C"],
  ["COc1cc(Nc2c(C#N)cnc3cc(/C=C/CCN4CCCC4)c(OC)cc23)c(Cl)cc1Cl", "melting point", "158 to 159 °C"],
  ["CN1CCCCCC1=NC(=O)Nc1c(Cl)cccc1Cl", "melting point", "143 to 144 °C"],
  ["N#Cc1cc(C#N)c(-c2ccc(Cl)cc2)[nH]1", "melting point", "235 to 240 °C"],
  ["N#Cc1cc2nc(O)c(O)nc2cc1C#N", "melting point", "> 300 °C"]
]}

With those in mind, consider the next compound.
Data request, read-out melting point, for CC(C)(n1cncn1)C(O)(Cc1nc[nH]n1)c1ccc(C(F)(F)F)cc1F (stereo unspecified)
174 to 175 °C
